readoutKind: melting point

[
  {
    "compound": "CC(=NNc1ccc(C2=NNC(=O)CC2)cc1)c1ccnnc1",
    "experimentalResult": "258 to 260 °C"
  },
  {
    "compound": "COc1cc(C)nc(N=C=S)n1",
    "experimentalResult": "54 to 55 °C"
  },
  {
    "compound": "CC(C)=CCCC(C)=CCCC(C)=CCCC(C)=CC=C1SC(=S)N(CC(=O)O)C1=O",
    "experimentalResult": "35 to 37 °C"
  },
  {
    "compound": "COC(=O)c1ccccc1C=CC(=O)N1CCc2c([nH]c3ccccc23)C1c1ccc2c(c1)OCO2 (stereo not given)",
    "experimentalResult": "203 to 204 °C"
  },
  {
    "compound": "COC1CCC(NC(=O)C2CC3c4cccc5c4c(cn5C(C)C)CC3N(C)C2)CC1 (stereo not given)",
    "experimentalResult": "> 230 °C"
  }
]

###

[
  {
    "compound": "CCN(Cc1cc(Cl)ccc1OCC(C)C)c1ccc(C(=O)O)nn1",
    "melting point": "132 to 134 °C"
  },
  {
    "compound": "CCOC(=O)C(=CNNc1c(Cl)cc(C(F)(F)F)cc1Cl)C(=O)OCC",
    "melting point": "86 °C"
  },
  {
    "compound": "CN1CC(c2ccc(S(C)(=O)=O)cc2)=C(c2ccc(Br)cc2)C1=O",
    "melting point": "161 to 163 °C"
  },
  {
    "compound": "Cc1cccc2c1N(CC(=O)c1ccccc1[N+](=O)[O-])C(=O)C(NC(=O)Nc1cccc(-c3nnn[nH]3)c1)N=C2c1ccccc1F (stereo not given)",
    "melting point": "192 to 197 °C"
  },
  {
    "compound": "CN(C)c1c([N+](=O)[O-])c(C(C)(C)C)nn1-c1c(Cl)cc(C(F)(F)F)cc1Cl",
    "melting point": "81 to 83 °C"
  }
]

###

readoutKind: melting point

[
  {
    "smi": "Cc1cc(C2=NN(C(=S)Cl)[C@H](C)Cc3cc4c(cc32)OCO4)cc(C)c1[N+](=O)[O-]",
    "readoutKind": "melting point",
    "experimentalResult": "216 °C"
  },
  {
    "smi": "CN(C)N=Nc1ccsc1C(=O)O",
    "readoutKind": "melting point",
    "experimentalResult": "108 to 110 °C"
  },
  {
    "smi": "COc1c(Cl)cc(NC(=O)OC(C)(C)C)cc1Cl",
    "readoutKind": "melting point",
    "experimentalResult": "115 to 116 °C"
  }
]

###

[
  {
    "compound": "Cc1c(-c2ccc(OCc3ccccc3)cc2)n(C(=O)c2ccc(OCCN3CCCCC3)cc2)c2ccc(OCc3ccccc3)cc12",
    "melting point": "48 to 51 °C"
  },
  {
    "compound": "CCCCCC(=O)CCc1ccc(CCCCCCCC(=O)O)o1",
    "melting point": "64 to 65 °C"
  },
  {
    "compound": "CCOC1CCC2(C)C(=CCC3C4CCC(=O)C4(C)CCC32)C1 (centres undefined)",
    "melting point": "146 to 147 °C"
  },
  {
    "compound": "COC(=O)c1cncc(OC2SCC(OC(C)=O)C(OC(C)=O)C2OC(C)=O)c1 (centres undefined)",
    "melting point": "50 °C"
  },
  {
    "compound": "COC=C1C(=O)N(OCc2ccccc2)C(=O)c2ccccc21",
    "melting point": "161 to 162 °C"
  },
  {
    "compound": "COc1ccc2[nH]cc(S(=O)(=O)c3ccccc3)c2c1",
    "melting point": "151 to 155 °C"
  },
  {
    "compound": "CC(=O)OC1CSC(Oc2cccnc2-c2c(C)noc2C)C(OC(C)=O)C1OC(C)=O (centres undefined)",
    "melting point": "68 to 72 °C"
  },
  {
    "compound": "CCOC(=O)C1C(=O)CC(C)(O)C(C(=O)OCC)C1c1cc(C)c2oc(C)c(C)c2c1 (centres undefined)",
    "melting point": "168 to 171 °C"
  },
  {
    "compound": "COCCOC(=O)C1=C(C)NC(C)=C(C(=O)OCCOC)C1c1ccccc1OC(F)F",
    "melting point": "94 to 95 °C"
  },
  {
    "compound": "CNC(CC(C)C)c1nc(-c2ccc3c(c2)Nc2ccccc2S3)cs1 (centres undefined)",
    "melting point": "146 to 148 °C"
  },
  {
    "compound": "CC1CCc2nc(-c3ccccc3)[nH]c(=O)c2C1 (centres undefined)",
    "melting point": "237 °C"
  },
  {
    "compound": "CCOC(=O)Nc1cccc(N2CCN(CCC3CCN(CC(C)=O)CC3)CC2)c1",
    "melting point": "118 °C"
  },
  {
    "compound": "CN1CC=C(c2c[nH]c3ccc(CCNS(C)(=O)=O)cc23)CC1",
    "melting point": "170 to 172 °C"
  },
  {
    "compound": "O=C(Nc1ccc2ccc(Oc3ccccc3)nc2n1)c1ccoc1",
    "melting point": "102 °C"
  },
  {
    "compound": "CC(C)c1cc(-c2ccc(F)cc2)n(-c2ncccn2)n1",
    "melting point": "102 to 103 °C"
  },
  {
    "compound": "CC(=O)CS(=O)(=O)CCc1ccc2c(c1)OCO2",
    "melting point": "97 to 99 °C"
  },
  {
    "compound": "OCC1OC(n2c(Cl)nc3c(Cl)cc(Cl)cc32)C(O)C1O (centres undefined)",
    "melting point": "162 °C"
  },
  {
    "compound": "COc1ccc(C=O)c(OCC#N)c1",
    "melting point": "96 to 101 °C"
  },
  {
    "compound": "CC1Oc2cc(F)ccc2NC1=O (centres undefined)",
    "melting point": "166 to 168 °C"
  },
  {
    "compound": "O=[N+]([O-])c1cnn(-c2c(Cl)cc(C(F)(F)F)cc2Cl)c1Cl",
    "melting point": "80 to 84 °C"
  },
  {
    "compound": "c1csc(Cn2ccnc2C2=NCCN2)c1",
    "melting point": "101 to 103 °C"
  },
  {
    "compound": "CCC(CCNC(=O)C(C#N)=Cc1cc(O)c(O)c(OC)c1)NC(=O)C(C#N)=Cc1cc(O)c(O)c(OC)c1 (centres undefined)",
    "melting point": "256 °C"
  },
  {
    "compound": "CCC(=O)N1CCC(NC(=O)Nc2ccc(C(=O)O)cc2)CC1",
    "melting point": "201 to 204 °C"
  },
  {
    "compound": "CC(=O)N(C(C)=O)c1c(I)c(C(=O)Cl)c(I)c(N(C(C)=O)C(C)=O)c1I",
    "melting point": "231 to 232 °C"
  },
  {
    "compound": "CC(=O)n1c(C)c(-c2ccc(F)cc2)c2cccnc21",
    "melting point": "84 to 87 °C"
  },
  {
    "compound": "Cn1cc2c(n1)Nc1ccc(Cl)cc1NC2=S",
    "melting point": "> 260 °C"
  },
  {
    "compound": "COC(=O)C(c1ccccc1)N1C(=O)C(N=[N+]=[N-])C1Sc1nnc(C)s1 (centres undefined)",
    "melting point": "81 to 84 °C"
  },
  {
    "compound": "CCCCN1CCCC1Cc1cccc(NC(N)=O)c1 (centres undefined)",
    "melting point": "80 to 83 °C"
  },
  {
    "compound": "CCOC(=O)CSc1n[nH]c(=S)[nH]1",
    "melting point": "134 to 136 °C"
  }
]
